Data provenance is patent US9346809B2.

Quick reference: EC50 of the listed items.
- ASSAY_SYSTEM: TYK2 (aa 871-1187, catalytic domain, GST-tag) (Homo sapiens)
- Construct: JAK1 (aa 850-1154) and TYK2 (aa 871-1187) are expressed with an N-terminally fused GST-tag; GST (N); purchased Carna Biosciences, Inc; host or cells: baculovirus expression system
- Sequence (P29597 871-1187): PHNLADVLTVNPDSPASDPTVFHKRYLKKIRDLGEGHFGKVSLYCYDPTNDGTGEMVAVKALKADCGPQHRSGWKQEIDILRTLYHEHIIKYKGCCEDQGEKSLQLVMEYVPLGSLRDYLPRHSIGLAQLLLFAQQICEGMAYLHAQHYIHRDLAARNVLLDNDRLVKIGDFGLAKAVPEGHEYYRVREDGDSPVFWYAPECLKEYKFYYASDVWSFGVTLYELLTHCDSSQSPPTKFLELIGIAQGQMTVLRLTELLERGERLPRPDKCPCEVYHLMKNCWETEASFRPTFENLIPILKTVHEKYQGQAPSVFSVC
- METHOD_SUMMARY: JAK kinase assay (HTRF, phosphorylation of TK substrate-biotin), TYK2
- Type: biochemical
- EXPERIMENTAL_CONDITIONS: HTRF assay, ATP at Km (13 μM); read-out: TYK2 kinase inhibitory activity (EC50 indicator)

Before answering, review these 6 worked examples.
N#Cc1cccc(CC(=O)N2CCN(c3ccnc4[nH]ccc34)CC23CC3)c1 [Example 236]
> 500 nM
O=C(c1cnc2ccccc2n1)N1[C@@H]2CC[C@H]1CN(c1ncnc3[nH]ccc13)C2 [Example 345]
> 500 nM
COc1cnc2[nH]ccc2c1N1CCN(C(=O)c2ccc(C#N)c(F)c2)C2(CC2)C1 [Example 292]
> 500 nM
COC(=O)c1cc2c(N3CCN(C(=O)C4(C#N)CC4)C4(CC4)C3)ncnc2[nH]1 [Example 336]
> 500 nM
Cc1cc(S(N)(=O)=O)ccc1C(=O)N1CCN(c2ncnc3[nH]ccc23)CC12CC2 [Example 379]
100 to 500 nM
COc1ccc(C(=O)N2CCN(c3ncnc4[nH]ccc34)CC23CC3)s1 [Example 206]
< 100 nM

Look up EC50: N#Cc1ccc2c(C(=O)N3CCN(c4ncnc5[nH]ccc45)CC34CC4)n[nH]c2c1 [Example 301]
100 to 500 nM

Look up EC50: COc1cnc2[nH]ccc2c1N1CCN(C(=O)c2cccc(C#N)c2)C2(CC2)C1 [Example 287]
> 500 nM

###

Quick reference: pEC50 of the listed items.
- ASSAY_SYSTEM: JAK3 (catalytic domain, His-tag) (Homo sapiens)
- Construct: All four purified enzymes contain only the catalytic domain; His (N); purchased Carna Biosciences, Inc; host or cells: baculovirus expression system
- Sequence (P52333 822-1111 limits assumed): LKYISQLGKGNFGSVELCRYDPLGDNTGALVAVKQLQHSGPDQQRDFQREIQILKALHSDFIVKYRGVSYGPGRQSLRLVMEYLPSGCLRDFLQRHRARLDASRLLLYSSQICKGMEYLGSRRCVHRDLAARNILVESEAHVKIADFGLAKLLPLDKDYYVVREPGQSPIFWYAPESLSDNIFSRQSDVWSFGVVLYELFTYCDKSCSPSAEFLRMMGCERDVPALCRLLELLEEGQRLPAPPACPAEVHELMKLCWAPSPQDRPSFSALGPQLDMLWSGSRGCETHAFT
- METHOD_SUMMARY: JAK kinase assay (HTRF, phosphorylation of TK substrate-biotin), JAK3
- Assay type: biochemical
- EXPERIMENTAL_CONDITIONS: ATP at Km (2 μM); read-out: JAK3 kinase inhibitory activity (EC50 indicator)
pEC50: −log10 of the molar value.

O=C(C1Cc2ccccc21)N1CCN(c2ncnc3[nH]ccc23)CC12CC2 (centres unmarked) [Example 125]
6.30 to 7.00
N#Cc1csc(C(=O)N2CCN(c3ncnc4[nH]ccc34)CC23CC3)c1 [Example 60]
> 7.00
CN(CC#N)C(=O)C1(C(=O)N2CCN(c3ncnc4[nH]ccc34)CC23CC3)CC1 [Example 86]
< 6.30
N#CCCC(=O)N1[C@@H]2CC[C@@H]1CN(c1ncnc3[nH]ccc13)C2 [Example 182]
6.30 to 7.00
CC(=O)Nc1nc(N2CCN(C(=O)Cc3ccc(C#N)cc3)C3(CC3)C2)c2cc[nH]c2n1 [Example 93]
> 7.00
N#Cc1cccc(C(=O)N2CCN(c3ncnc4[nH]ccc34)CC23CC3)c1 [Example 44]
> 7.00

Look up pEC50: O=C(C(=O)N1CCN(c2ncnc3[nH]ccc23)CC12CC2)c1cccs1 [Example 205]
> 7.00

Look up pEC50: Cc1c[nH]c2ncnc(N3CCN(C(=O)c4ccc(C#N)cc4)C4(CC4)C3)c12 [Example 118]
< 6.30
